B1: KRT34 (parent)
chain: PTVDLNQVLNETRSQYEALVETNR

variants of: B1; experiment: protein stability index of a GFP-peptide fusion (GPS, HEK-293T) (PSI 1-6); higher = more stable; conditions: c terminus: a fixed tail appended;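 further: lentivirally expressed fusions sorted by FACS into six bins by GFP to DsRed ratio, PSI derived from sequencing read proportions per bin multiplied by bin number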
readout-type: protein stability index

# mutations, result-value
data = [
    ("S14Y", 3.33),
    ("T2K", 3.14),
    ("S14P", 4.1),
    ("V20G", 4.44),
    ("P1T", 3.96),
    ("A18K", 3.16),
    ("D4P", 3.05),
    ("T2W", 1.4),
    ("N6A", 2.48),
    ("E11L", 3.36),
    ("N23W", 2.53),
    ("N6K", 2.98),
    ("E17W", 3.35),
    ("L9Q", 3.36),
    ("T22N", 4.39),
    ("V3H", 3.8),
    ("A18Q", 3.78),
    ("T12H", 1.75),
    ("E17F", 3.08),
    ("E17Q", 3.88),
    ("N23G", 4.04),
    ("Q7D", 3.66),
    ("V8M", 2.88),
    ("L19I", 4.16),
    ("E11G", 4.05),
    ("V20W", 3.83),
    ("T22V", 1.71),
    ("Q7L", 4.08),
    ("A18F", 3.59),
    ("N10A", 2.44),
    ("N10G", 4.35),
    ("N6F", 2.42),
    ("E17Y", 3.22),
    ("N10C", 2.82),
    ("S14I", 2.44),
    ("E17L", 3.85),
    ("S14R", 2.15),
    ("R13P", 4.79),
    ("D4F", 3.19),
    ("S14M", 1.65),
    ("A18T", 3.81),
    ("V20L", 4.04),
    ("Y16V", 4.9),
    ("E21T", 3.74),
    ("E11P", 4.1),
    ("V8Q", 4.3),
]
